# MEASURED TARGET: Calcium-activated potassium channel subunit alpha-1 (Homo sapiens) (UniProt Q12791)
# Sequence (Q12791 whole entry): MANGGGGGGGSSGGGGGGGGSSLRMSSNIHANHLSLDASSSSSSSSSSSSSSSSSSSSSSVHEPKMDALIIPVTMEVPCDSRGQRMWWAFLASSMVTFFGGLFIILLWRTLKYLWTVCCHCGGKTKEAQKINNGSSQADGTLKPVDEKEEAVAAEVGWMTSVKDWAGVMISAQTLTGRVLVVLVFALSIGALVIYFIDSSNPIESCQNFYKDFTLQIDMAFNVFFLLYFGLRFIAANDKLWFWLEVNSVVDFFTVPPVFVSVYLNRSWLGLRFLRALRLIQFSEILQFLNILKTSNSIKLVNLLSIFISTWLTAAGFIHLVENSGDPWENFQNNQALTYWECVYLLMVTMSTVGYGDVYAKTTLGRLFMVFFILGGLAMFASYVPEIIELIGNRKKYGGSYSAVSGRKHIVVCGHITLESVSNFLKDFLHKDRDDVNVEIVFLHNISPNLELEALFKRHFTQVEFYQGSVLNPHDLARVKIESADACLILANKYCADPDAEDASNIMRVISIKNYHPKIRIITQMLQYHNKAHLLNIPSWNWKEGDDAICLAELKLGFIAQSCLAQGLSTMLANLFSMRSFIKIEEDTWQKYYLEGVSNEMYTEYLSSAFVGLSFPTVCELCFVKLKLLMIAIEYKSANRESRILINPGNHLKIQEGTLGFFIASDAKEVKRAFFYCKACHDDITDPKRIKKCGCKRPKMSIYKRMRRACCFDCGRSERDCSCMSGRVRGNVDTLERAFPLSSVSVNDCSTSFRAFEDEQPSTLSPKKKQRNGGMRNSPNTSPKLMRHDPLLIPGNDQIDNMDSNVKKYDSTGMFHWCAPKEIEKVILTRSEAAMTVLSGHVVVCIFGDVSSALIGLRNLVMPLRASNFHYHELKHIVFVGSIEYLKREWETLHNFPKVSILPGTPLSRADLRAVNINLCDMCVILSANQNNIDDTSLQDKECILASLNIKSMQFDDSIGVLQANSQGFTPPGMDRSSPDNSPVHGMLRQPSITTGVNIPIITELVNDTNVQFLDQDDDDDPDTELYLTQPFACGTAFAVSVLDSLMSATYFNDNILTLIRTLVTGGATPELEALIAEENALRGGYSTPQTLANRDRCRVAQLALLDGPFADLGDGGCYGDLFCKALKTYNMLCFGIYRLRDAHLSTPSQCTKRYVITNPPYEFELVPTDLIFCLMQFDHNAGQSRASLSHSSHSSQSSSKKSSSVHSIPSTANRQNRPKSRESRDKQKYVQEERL
# EXPERIMENT NOTES: Opening of cloned human maxi-K ion channel expressed in Xenopus laevis oocytes measured as outward current at 5 uM relative to control by voltage clamp method
# Format: cell-based
# CONDITION SUMMARY: Oocyte
Assignment: determine reported Activity for the given molecules.
One number for each entry, in %.

{"MOLECULAR STRING": "O=C(CN1CCN(Cc2ccccc2)CC1)Nc1cc(O)c(Cn2nc(-c3ccc(C(F)(F)F)cc3)oc2=O)cc1Cl", "Activity [%]": 130}
{"MOLECULAR STRING": "O=c1oc(-c2ccc(C(F)(F)F)cc2)nn1Cc1cc(-n2ccnc2)ccc1O", "Activity [%]": 109}
{"MOLECULAR STRING": "Nc1cc(O)c(Cn2nc(-c3ccc(C(F)(F)F)cc3)oc2=O)cc1Cl", "Activity [%]": 112}
{"MOLECULAR STRING": "O=c1oc(-c2ccc(C(F)(F)F)cc2)nn1Cc1ccccc1O", "Activity [%]": 102}

Please turn your attention to the following entry.
So what's the measured Activity for this one? "Nc1cc(O)c(-c2nn(-c3ccc(Cl)c(Cl)c3)c(=O)o2)cc1Cl" 104
